- Measurement Target: human PI3Kα protein (Homo sapiens)
- Construct: purchased Carna Biosciences, Inc; host or cells: baculovirus expression system
- Sequence (P42336 whole entry): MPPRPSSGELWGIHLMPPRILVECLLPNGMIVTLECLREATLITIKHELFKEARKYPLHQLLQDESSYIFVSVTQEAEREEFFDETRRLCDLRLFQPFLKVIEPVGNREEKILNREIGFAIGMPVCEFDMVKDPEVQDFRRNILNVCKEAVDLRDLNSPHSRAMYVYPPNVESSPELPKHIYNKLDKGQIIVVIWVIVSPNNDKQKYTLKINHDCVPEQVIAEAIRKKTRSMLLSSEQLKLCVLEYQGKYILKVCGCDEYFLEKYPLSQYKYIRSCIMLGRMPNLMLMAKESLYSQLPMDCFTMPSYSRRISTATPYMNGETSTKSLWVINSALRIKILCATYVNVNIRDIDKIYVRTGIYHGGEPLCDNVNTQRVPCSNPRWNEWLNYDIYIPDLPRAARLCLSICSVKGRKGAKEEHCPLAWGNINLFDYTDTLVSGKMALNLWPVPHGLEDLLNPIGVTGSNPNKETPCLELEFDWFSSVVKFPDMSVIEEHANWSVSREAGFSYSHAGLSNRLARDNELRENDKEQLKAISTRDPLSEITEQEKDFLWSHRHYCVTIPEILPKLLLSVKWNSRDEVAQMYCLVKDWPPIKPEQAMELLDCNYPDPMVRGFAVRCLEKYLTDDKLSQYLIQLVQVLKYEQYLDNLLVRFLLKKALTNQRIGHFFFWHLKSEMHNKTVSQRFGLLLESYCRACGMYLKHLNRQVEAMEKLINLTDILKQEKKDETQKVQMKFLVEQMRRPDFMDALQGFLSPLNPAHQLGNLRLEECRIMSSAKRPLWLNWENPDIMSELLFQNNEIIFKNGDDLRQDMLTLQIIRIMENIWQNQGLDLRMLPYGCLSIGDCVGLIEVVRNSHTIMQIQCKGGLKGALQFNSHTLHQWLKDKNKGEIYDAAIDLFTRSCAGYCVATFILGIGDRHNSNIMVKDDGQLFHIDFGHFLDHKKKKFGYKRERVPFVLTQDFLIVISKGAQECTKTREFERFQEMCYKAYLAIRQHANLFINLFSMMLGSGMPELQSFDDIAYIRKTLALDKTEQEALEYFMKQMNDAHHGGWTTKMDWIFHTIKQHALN
- Sequence (P27986 whole entry partner): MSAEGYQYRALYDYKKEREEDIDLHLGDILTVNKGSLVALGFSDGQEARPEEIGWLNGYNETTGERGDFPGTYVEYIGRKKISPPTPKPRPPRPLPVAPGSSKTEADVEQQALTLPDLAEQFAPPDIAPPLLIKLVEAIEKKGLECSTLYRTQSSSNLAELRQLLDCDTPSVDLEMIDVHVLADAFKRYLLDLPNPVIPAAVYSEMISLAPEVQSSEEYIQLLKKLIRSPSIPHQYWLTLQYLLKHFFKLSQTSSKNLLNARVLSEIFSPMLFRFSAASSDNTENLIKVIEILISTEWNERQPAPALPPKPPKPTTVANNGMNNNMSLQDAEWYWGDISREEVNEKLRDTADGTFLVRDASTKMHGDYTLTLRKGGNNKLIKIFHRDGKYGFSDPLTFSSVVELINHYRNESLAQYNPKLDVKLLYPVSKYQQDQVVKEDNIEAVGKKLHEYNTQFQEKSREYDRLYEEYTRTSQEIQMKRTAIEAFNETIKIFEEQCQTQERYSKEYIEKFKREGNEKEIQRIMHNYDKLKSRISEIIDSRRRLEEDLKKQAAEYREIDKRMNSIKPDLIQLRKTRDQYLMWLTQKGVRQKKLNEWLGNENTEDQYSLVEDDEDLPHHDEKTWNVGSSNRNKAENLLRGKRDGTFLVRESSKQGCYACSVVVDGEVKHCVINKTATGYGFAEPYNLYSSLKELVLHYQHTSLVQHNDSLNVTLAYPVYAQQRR
- Test Description: PI3Kα enzyme assay (ADP-Glo)
- Type: biochemical
- Conditions Used: 4.5 nmol/L PI3Kα, PIP2 50 μmol/L, ATP 100 μmol/L; read-out: PI3Kα enzyme inhibitory activity
Each entry below lists one item and its recorded IC50 value.

CN1CCN(c2cnc3ccc(Nc4nnc(C5CCCC5)s4)nc3c2)CC1    1000 to 10000 nM

Data point: `OCCCN1CCN(c2cnc3ccc(Nc4nnc(C5CCCC5)s4)nc3c2)CC1` ; IC50 = 1000 to 10000 nM

Data point: `CC(C)c1cnnc(Nc2ccc3ncc(-c4cnn(C)c4)nc3n2)c1` ; IC50 = < 1000 nM

Data point: `COCc1nn(C)cc1-c1cnc2ccc(Nc3nnc(C(C)C)s3)nc2c1` ; IC50 = < 1000 nM

Data point: `COc1ccc(Nc2cnc3ccc(Nc4nnc(C5CCCC5)s4)nc3c2)cn1` ; IC50 = < 1000 nM

Data point: `CN1CCN(c2cnc3ccc(Nc4nnc(C5CCCC5)s4)nc3c2)CC1=O` ; IC50 = < 1000 nM
